- Test system: SNB-75
- Assay details: NCI tumour cell line growth inhibition, 48 h
Active and inactive are the calls of the source. Cut-off read from the data, not from the text of the source: active = GI50 up to about 1.1 µM and inactive = higher.
Reported GI50 values for a set of compounds

Compound: CCc1ccc(Cc2ccc(CC)c(NC(=O)C(=O)Cc3nc4ccccc4nc3C)c2CC)c(CC)c1NC(=O)C(=O)Cc1nc2ccccc2nc1C
System: SNB-75
Readout label: GI50
Recorded measurement: 9.77 µM (inactive)
//
Compound: CC(=O)OCC1OC(OC2CC3C(C)(C)C(O)CC[C@]3(C)C3CCC45CC4(CC[C@H]5C(C)CC(O)C4OC4(C)C)[C@]23C)C(O)C(O)C1O (stereo partly drawn)
System: SNB-75
Readout label: GI50
Recorded measurement: 7.46 µM (inactive)
//
Compound: O=C1[C@H]2ON(c3ccccc3)C(c3cccc([N+](=O)[O-])c3)[C@H]2C(=O)N1c1ccc(Cc2ccc(N3C(=O)[C@@H]4ON(c5ccccc5)C(c5cccc([N+](=O)[O-])c5)[C@@H]4C3=O)cc2)cc1 (stereo partly drawn)
System: SNB-75
Readout label: GI50
Recorded measurement: > 100 µM (inactive)

Report GI50 for COC(=O)CSc1nc2[nH]c(SC)c(C(N)=O)c2c(=O)n1-c1ccccc1 please.
> 10 µM (inactive)

Any idea what GI50 was measured for CN1CCc2[nH]c3ccccc3c2C1 ?
> 100 µM (inactive)

// lookup GI50 for Cc1ccc(S(=O)(=O)ON2C(=O)c3c(N)c(C#N)c(-c4ccccc4)c(-c4ccccc4)c3C2=O)cc1
36.4 µM (inactive)

Given the compound COC12OCCN(C)C1=CC(=O)C1=NNC(C)C12 (stereo not drawn) , what is its reported GI50?
> 100 µM (inactive)

I am curious: what GI50 value has been reported for CCCCCC/C=C/CCCCCCCc1cccc(O)c1C(=O)O ?
> 100 µM (inactive)
